Where do these numbers come from? They come from ChEMBL document CHEMBL3301472.

ASSAY REMARKS: MMV: MTT Cytotoxicity Assay Day 7 pi of Assay #11 (NO washout), U87-CD4-CXCR4 cells, % cell death @ 5mM compound
Type: toxicity, cell-based
RECORDED CONDITIONS: human, u87-cd4-cxcr4, 5000 µM
Please go through the items and note down their % Cell Death.
One number for each entry.

COMPOUND | % Cell Death
CC(=O)c1ccc(NC(=O)CSc2nc(-c3ccccc3Cl)ns2)cc1 | -33

For every record below, what is its % Cell Death?
1. COc1cc(OC)c(N(C)C(=O)c2cc3c(s2)-c2ccccc2S(=O)(=O)C3)cc1Cl
2. O=C(Nc1ccc(F)c(Cl)c1)Nc1ccc(Cl)c(Cl)c1
3. N=c1n(CCN2CCCCC2)c2ccccc2n1CC(=O)c1ccc(Cl)c(Cl)c1
4. COc1ccc(C(C)=O)cc1N1C(=O)C2C(C1=O)C1(c3ccccc3)C(=O)C2(c2ccccc2)C(c2ccc(C)cc2)=C1c1ccc(C)cc1 (stereo not given)

Outgoing:
[-30, -12, -14, 5]
